// data source = patent US20260308269

Biological target: T1, human TfR apical domain (human)
T1 chain: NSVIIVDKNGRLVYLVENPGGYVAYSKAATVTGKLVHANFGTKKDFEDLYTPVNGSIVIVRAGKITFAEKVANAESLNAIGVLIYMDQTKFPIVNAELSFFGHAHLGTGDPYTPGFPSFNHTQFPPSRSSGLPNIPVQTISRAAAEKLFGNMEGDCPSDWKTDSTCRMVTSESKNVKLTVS
Test: SPR
Catalogue of Kd values
Lab book: enter the figure in µM, no units written.

| binder | endpoint-unit | Kd |
| --- | --- | --- |
| 35.d1.24 (protein) ASTKGPSVFPLAPSSKSTSGGTAALGCLVKDYFPEPVTVSWNSGALTSGVHTFPAVLQSSGLYSLSSVVTVPSSSLGTQTYICNVNHKPSNTKVDKKVEPKSCDKTHTCPPCPAPELLGGPSVFLFPPKPKDTLMISRTPEVTCVVVDVSHEDPEVKFNWYVDGVEVHNAKTKPREEQYNSTYRVVSVLTVLHQDWLNGKEYKCKVSNKALPAPIEKTISKAKGQPREPQVYTLPPSRDELTKNQVSLTCLVKGFYPSDIAVEWESYGTEWSNYKTTPPVLDSDGSFFLYSKLTVSKEEWQQGYVFSCSVMHEALHNHYTQKSLSLSPELQLEESCAEAQDGELDGLWTT | µM | 1.1 |

[in] # Kd lookup, item TV35.d1.10 (protein) PCPAPEAAGGPSVFLFPPKPKDTLMISRTPEVTCVVVDVSHEDPEVKFNWYVDGVEVHNAKTKPREEQYNSTYRVVSVLTVLHQDWLNGKEYKCKVSNKALGAPIEKTISKAKGQPREPQVYTLPPSRDELTKNQVSLWCLVKGFYPSDIAVEWESYGTEWVNYKTTPPVLDSDGSFFLYSKLTVTKSEWQQGFVFSCSVMHEALHNHYTQKSLSLSPGK
[out] 2.5
